Measured values drawn from the supplement of paper PMC5998384 for this set.

Quick list: solubility in G1/S (log2) per entry.
System: HeLa Kyoto;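 note: HeLa Kyoto cells arrested at G1/S by double thymidine block, proteins quantified by TMT10plex mass spectrometry in mild NP-40 versus SDS extracts, three biological replicates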
Test: solubility in G1/S (NP-40 vs SDS abundance) (log2 ratio); higher = more soluble
Settings: cell cycle stage: G1/S

Item: MGKSDFLTPKAIANRIKSKGLQKLRWYCQMCQKQCRDENGFKCHCMSESHQRQLLLASENPQQFMDYFSEEFRNDFLELLRRRFGTKRVHNNIVYNEYISHREHIHMNATQWETLTDFTKWLGREGLCKVDETPKGWYIQYIDRDPETIRRQLELEKKKKQDLDDEEKTAKFIEEQVRRGLEGKEQEVPTFTELSRENDEEKVTFNLSKGACSSSGATSSKSSTLGPSALKTIGSSASVKRKESSQSSTQSKEKKKKKSALDEIMEIEEEKKRTARTDYWLQPEIIVKIITKKLGEKYHKKKAIVKEVIDKYTAVVKMIDSGDKLKLDQTHLETVIPAPGKRILVLNGGYRGNEGTLESINEKTFSATIVIETGPLKGRRVEGIQYEDISKLA [KIN] | solubility in G1/S (log2): -0.339

Continuing:
Item: MSLLRSLRVFLVARTGSYPAGSLLRQSPQPRHTFYAGPRLSASASSKELLMKLRRKTGYSFVNCKKALETCGGDLKQAEIWLHKEAQKEGWSKAAKLQGRKTKEGLIGLLQEGNTTVLVEVNCETDFVSRNLKFQLLVQQVALGTMMHCQTLKDQPSAYSKGFLNSSELSGLPAGPDREGSLKDQLALAIGKLGENMILKRAAWVKVPSGFYVGSYVHGAMQSPSLHKLVLGKYGALVICETSEQKTNLEDVGRRLGQHVVGMAPLSVGSLDDEPGGEAETKMLSQPYLLDPSITLGQYVQPQGVSVVDFVRFECGEGEEAAETE [TSFM] | solubility in G1/S (log2): 0.283

Item: MEEIYAKFVSQKISKTRWRPLPPGSLQTAETFATGSWDNEENYISLWSIGDFGNLDSDGGFEGDHQLLCDIRHHGDVMDLQFFDQERIVAASSTGCVTVFLHHPNNQTLSVNQQWTTAHYHTGPGSPSYSSAPCTGVVCNNPEIVTVGEDGRINLFRADHKEAVRTIDNADSSTLHAVTFLRTPEILTVNSIGQLKIWDFRQQGNEPSQILSLTGDRVPLHCVDRHPNQQHVVATGGQDGMLSIWDVRQGTMPVSLLKAHEAEMWEVHFHPSNPEHLFTCSEDGSLWHWDASTDVPEKSSLFHQGGRSSTFLSHSISNQANVHQSVISSWLSTDPAKDRIEITSLLPSRSLSVNTLDVLGPCLVCGTDAEAIYVTRHLFS [NUP43] | solubility in G1/S (log2): -0.175

Item: MEDPTLYIVERPLPGYPDAEAPEPSSAGAQAAEEPSGAGSEELIKSDQVNGVLVLSLLDKIIGAVDQIQLTQAQLEERQAEMEGAVQSIQGELSKLGKAHATTSNTVSKLLEKVRKVSVNVKTVRGSLERQAGQIKKLEVNEAELLRRRNFKVMIYQDEVKLPAKLSISKSLKESEALPEKEGEELGEGERPEEDAAALELSSDEAVEVEEVIEESRAERIKRSGLRRVDDFKKAFSKEKMEKTKVRTRENLEKTRLKTKENLEKTRHTLEKRMNKLGTRLVPAERREKLKTSRDKLRKSFTPDHVVYARSKTAVYKVPPFTFHVKKIREGQVEVLKATEMVEVGADDDEGGAERGEAGDLRRGSSPDVHALLEITEESDAVLVDKSDSD [PTRF] | solubility in G1/S (log2): -0.215

Item: MLEPQENGVIDLPDYEHVEDETFPPFPPPASPERQDGEGTEPDEESGNGAPVRVPPKRTVKRNIPKLDAQRLISERGLPALRHVFDKAKFKGKGHEAEDLKMLIRHMEHWAHRLFPKLQFEDFIDRVEYLGSKKEVQTCLKRIRLDLPILHEDFVSNNDEVAENNEHDVTSTELDPFLTNLSESEMFASELSRSLTEEQQQRIERNKQLALERRQAKLLSNSQTLGNDMLMNTPRAHTVEEVNTDEDQKEESNGLNEDILDNPCNDAIANTLNEEETLLDQSFKNVQQQLDATSRNITEAR [TIPIN] | solubility in G1/S (log2): 0.321

Item: "RALGAPB" | solubility in G1/S (log2): -0.0337

Item: MAAAAPNAGGSAPETAGSAEAPLQYSLLLQYLVGDKRQPRLLEPGSLGGIPSPAKSEEQKMIEKAMESCAFKAALACVGGFVLGGAFGVFTAGIDTNVGFDPKDPYRTPTAKEVLKDMGQRGMSYAKNFAIVGAMFSCTECLIESYRGTSDWKNSVISGCITGGAIGFRAGLKAGAIGCGGFAAFSAAIDYYLR [TIMM22] | solubility in G1/S (log2): 0.0827

Item: MSATRAKKVKMATKSCPECDQQVPVACKSCPCGYIFISRKLLNAKHSEKSPPSTENKHEAKRRRTERVRREKINSTVNKDLENRKRSRSNSHSDHIRRGRGRPKSASAKKHEEEREKQEKEIDIYANLSDEKAFVFSVALAEINRKIINQRLIL [C16ORF87] | solubility in G1/S (log2): 0.019

Item: MPGGLLLGDVAPNFEANTTVGRIRFHDFLGDSWGILFSHPRDFTPVCTTELGRAAKLAPEFAKRNVKLIALSIDSVEDHLAWSKDINAYNCEEPTEKLPFPIIDDRNRELAILLGMLDPAEKDEKGMPVTARVVFVFGPDKKLKLSILYPATTGRNFDEILRVVISLQLTAEKRVATPVDWKDGDSVMVLPTIPEEEAKKLFPKGVFTKELPSGKKYLRYTPQP [PRDX6] | solubility in G1/S (log2): 0.444

Item: MQPGSSRCEEETPSLLWGLDPVFLAFAKLYIRDILDMKESRQVPGVFLYNGHPIKQVDVLGTVIGVRERDAFYSYGVDDSTGVINCICWKKLNTESVSAAPSAARELSLTSQLKKLQETIEQKTKIEIGDTIRVRGSIRTYREEREIHATTYYKVDDPVWNIQIARMLELPTIYRKVYDQPFHSSALEKEEALSNPGALDLPSLTSLLSEKAKEFLMENRVQSFYQQELEMVESLLSLANQPVIHSASSDQVNFKKDTTSKAIHSIFKNAIQLLQEKGLVFQKDDGFDNLYYVTREDKDLHRKIHRIIQQDCQKPNHMEKGCHFLHILACARLSIRPGLSEAVLQQVLELLEDQSDIVSTMEHYYTAF [OBFC1] | solubility in G1/S (log2): 0.0155
